target_desc: DarB (Bacillus subtilis, UniProt O31698)
Sequence (O31698 1-147): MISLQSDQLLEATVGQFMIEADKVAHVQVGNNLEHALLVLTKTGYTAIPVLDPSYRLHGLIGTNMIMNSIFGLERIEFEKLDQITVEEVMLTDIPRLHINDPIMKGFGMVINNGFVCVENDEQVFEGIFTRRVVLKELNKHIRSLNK
readout_label: Kd (µM)

> print(dat)
                         compound.structure                               target.desc  readout.label   val
1  Nc1ncnc2c1ncn2[C@@H]1O[C@H](COP(=O)(O)O)[C@@H](O)[C@H]1O  DarB (Bacillus subtilis, UniProt O31698)             Kd  91.1
